Reported IC50 values for the following molecules.
target: Cytochrome P450 2C9 (Homo sapiens)
Sequence (P11712 whole entry): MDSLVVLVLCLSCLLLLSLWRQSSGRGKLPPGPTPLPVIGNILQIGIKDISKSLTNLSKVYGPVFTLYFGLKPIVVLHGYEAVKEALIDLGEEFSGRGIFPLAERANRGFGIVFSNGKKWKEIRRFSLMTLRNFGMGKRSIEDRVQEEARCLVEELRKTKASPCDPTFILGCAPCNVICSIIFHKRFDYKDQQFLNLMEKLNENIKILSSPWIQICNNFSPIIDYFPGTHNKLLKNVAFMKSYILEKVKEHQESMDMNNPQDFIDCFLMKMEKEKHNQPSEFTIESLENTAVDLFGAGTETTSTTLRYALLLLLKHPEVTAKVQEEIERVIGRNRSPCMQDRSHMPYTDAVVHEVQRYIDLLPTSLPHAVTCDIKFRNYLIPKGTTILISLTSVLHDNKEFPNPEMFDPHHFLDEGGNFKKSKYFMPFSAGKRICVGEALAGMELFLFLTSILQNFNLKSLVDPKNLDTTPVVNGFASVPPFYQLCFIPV

Sample records with IC50:
# Smiles repr, IC50
data = [
    ("CCn1cc(C(=O)O)c(=O)c2cc(F)c(N3CCNCC3)cc21", "> 50 µM"),
    ("C[C@]12C=CC(=O)C=C1CC[C@H]1[C@@H]3C[C@@H](O)[C@](O)(C(=O)CO)[C@@]3(C)C[C@H](O)[C@@]12F", "> 50 µM"),
    ("CCCc1nc2c(C)cc(-c3nc4ccccc4n3C)cc2n1Cc1ccc(-c2ccccc2C(=O)O)cc1", "4.78 µM"),
]

Lab note: next molecule to report on.
Give reported IC50 for `Fc1ccc(C(c2ccc(F)cc2)N2CCN(C/C=C/c3ccccc3)CC2)cc1` (Cytochrome P450 2C9 (Homo sapiens)) > 50 µM

---

Reported IC50 values for the following molecules.
Target: Cytochrome P450 1A2 (Homo sapiens)
Sequence (P05177 whole entry): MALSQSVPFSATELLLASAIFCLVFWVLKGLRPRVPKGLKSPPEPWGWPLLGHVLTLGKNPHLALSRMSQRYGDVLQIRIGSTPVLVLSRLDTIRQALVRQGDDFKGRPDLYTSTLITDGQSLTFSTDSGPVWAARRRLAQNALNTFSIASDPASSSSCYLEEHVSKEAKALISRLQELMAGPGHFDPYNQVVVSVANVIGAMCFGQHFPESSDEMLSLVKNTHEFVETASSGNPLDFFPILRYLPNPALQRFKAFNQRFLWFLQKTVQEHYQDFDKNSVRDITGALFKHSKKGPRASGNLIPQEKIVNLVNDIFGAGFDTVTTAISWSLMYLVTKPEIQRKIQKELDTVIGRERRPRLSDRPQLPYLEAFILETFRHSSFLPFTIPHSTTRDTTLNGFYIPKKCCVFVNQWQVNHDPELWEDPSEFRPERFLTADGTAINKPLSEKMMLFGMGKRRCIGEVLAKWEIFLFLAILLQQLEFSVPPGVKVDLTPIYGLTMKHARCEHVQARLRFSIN

Sample records with IC50:
# Molecule, IC50
records = [
    ("C[C@]12C=CC(=O)C=C1CC[C@H]1[C@@H]3C[C@@H](O)[C@](O)(C(=O)CO)[C@@]3(C)C[C@H](O)[C@@]12F [TRIAMCINOLONE]", "> 50 µM"),
    ("CC(C)COCC(CN(Cc1ccccc1)c1ccccc1)N1CCCC1 (stereo not given) [BEPRIDIL]", "> 50 µM"),
]

Please report the measured IC50 for COCC(=O)O[C@]1(CCN(C)CCCc2nc3ccccc3[nH]2)CCc2cc(F)ccc2[C@@H]1C(C)C [MIBEFRADIL] > 50 µM

Please report the measured IC50 for Fc1ccc(C(c2ccc(F)cc2)N2CCN(C/C=C/c3ccccc3)CC2)cc1 [FLUNARIZINE] > 50 µM

Please report the measured IC50 for `CCCc1nc2c(C)cc(-c3nc4ccccc4n3C)cc2n1Cc1ccc(-c2ccccc2C(=O)O)cc1` > 50 µM

---

assay: Tmax in human; type: ADME, organism-based; conditions: in vivo
Recorded endpoint: Tmax (h)
Expressed in h, but write only the number.

Please report the measured Tmax for `Fc1ccc(C(c2ccc(F)cc2)N2CCN(C/C=C/c3ccccc3)CC2)cc1` 4

---

IC50 data for Cytochrome P450 2D6 (Homo sapiens, UniProt P10635) follow.

Sample records with IC50:
# Molecule, Result
data = [
    ("CCCc1nc2c(C)cc(-c3nc4ccccc4n3C)cc2n1Cc1ccc(-c2ccccc2C(=O)O)cc1", "> 50 µM"),
    ("C[C@]12C=CC(=O)C=C1CC[C@H]1[C@@H]3C[C@@H](O)[C@](O)(C(=O)CO)[C@@]3(C)C[C@H](O)[C@@]12F", "> 50 µM"),
    ("CC(C)COCC(CN(Cc1ccccc1)c1ccccc1)N1CCCC1 (centres undefined)", "> 50 µM"),
]

Lab note: next molecule to report on.
Give reported IC50 for `CN[C@H]1CC[C@@H](c2ccc(Cl)c(Cl)c2)c2ccccc21` (Cytochrome P450 2D6 (Homo sapiens, UniProt P10635)) 2.88 µM

Cited source for all entries: ChEMBL document CHEMBL3526101
